Cited source: patent US9034856B2

biological target: androgen receptor (Homo sapiens (Human), UniProt P10275); assay: Androgenic/antiandrogenic action by transactivation test (PC3 reporter cells); type: cell-based; details: read-out: Androgen receptor Agonism efficacy
Sequence (P10275 whole entry, species assumed): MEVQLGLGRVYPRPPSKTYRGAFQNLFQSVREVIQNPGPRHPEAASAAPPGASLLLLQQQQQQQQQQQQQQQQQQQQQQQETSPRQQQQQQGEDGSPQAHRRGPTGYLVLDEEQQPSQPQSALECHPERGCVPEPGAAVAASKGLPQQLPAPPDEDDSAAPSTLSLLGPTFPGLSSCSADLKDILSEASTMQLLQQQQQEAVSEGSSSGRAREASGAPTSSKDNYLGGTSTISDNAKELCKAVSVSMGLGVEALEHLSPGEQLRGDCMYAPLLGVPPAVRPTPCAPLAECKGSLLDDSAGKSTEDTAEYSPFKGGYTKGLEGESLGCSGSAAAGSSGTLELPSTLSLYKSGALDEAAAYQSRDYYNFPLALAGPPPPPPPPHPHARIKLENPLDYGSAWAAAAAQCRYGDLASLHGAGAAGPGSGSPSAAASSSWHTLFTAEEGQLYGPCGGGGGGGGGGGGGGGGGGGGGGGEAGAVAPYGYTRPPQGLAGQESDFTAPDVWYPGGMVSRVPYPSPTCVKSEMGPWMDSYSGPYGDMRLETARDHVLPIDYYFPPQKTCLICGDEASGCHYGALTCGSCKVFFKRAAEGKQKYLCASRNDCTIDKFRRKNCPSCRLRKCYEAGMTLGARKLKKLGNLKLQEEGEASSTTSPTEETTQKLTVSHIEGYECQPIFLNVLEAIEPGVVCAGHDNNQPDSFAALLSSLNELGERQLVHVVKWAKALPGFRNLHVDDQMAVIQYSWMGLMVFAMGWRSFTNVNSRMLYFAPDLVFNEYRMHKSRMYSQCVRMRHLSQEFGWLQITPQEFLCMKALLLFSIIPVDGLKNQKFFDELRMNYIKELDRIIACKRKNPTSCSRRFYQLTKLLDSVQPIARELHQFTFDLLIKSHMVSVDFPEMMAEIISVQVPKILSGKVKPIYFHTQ
Below, each of the molecules is paired with its reported Emax value.
Respond numerically; units are % and should not be typed.

MOLECULE: C[C@]12CC[C@H]3[C@@H](CCC4=CC(=O)CC[C@@H]43)[C@@H]1CC[C@@]21C=CCO1 (stereo in doubt)
UNIT ABBREVIATION: %
Emax: 62.7
//
MOLECULE: CC[C@]12CC[C@H]3[C@@H]([C@H](C4CC4)CC4=CC(=O)CC[C@@H]43)[C@@H]1CC[C@@]21C=CCO1
UNIT ABBREVIATION: %
Emax: 70.1

Next molecule, please.
get_value(item= CC[C@]12CC[C@H]3[C@@H](C=CC4=CC(=O)CC[C@@H]43)[C@@H]1CC[C@@]21C=CCO1 (stereo in doubt) , readout=Emax) returns 62

* * *

target: mineralocorticoid receptor (Homo sapiens (Human), UniProt P08235); assay: Mineralocorticoid receptor binding test; conditions: reference 3H-aldosterone, Hi5 cytosol
Sequence (P08235 whole entry): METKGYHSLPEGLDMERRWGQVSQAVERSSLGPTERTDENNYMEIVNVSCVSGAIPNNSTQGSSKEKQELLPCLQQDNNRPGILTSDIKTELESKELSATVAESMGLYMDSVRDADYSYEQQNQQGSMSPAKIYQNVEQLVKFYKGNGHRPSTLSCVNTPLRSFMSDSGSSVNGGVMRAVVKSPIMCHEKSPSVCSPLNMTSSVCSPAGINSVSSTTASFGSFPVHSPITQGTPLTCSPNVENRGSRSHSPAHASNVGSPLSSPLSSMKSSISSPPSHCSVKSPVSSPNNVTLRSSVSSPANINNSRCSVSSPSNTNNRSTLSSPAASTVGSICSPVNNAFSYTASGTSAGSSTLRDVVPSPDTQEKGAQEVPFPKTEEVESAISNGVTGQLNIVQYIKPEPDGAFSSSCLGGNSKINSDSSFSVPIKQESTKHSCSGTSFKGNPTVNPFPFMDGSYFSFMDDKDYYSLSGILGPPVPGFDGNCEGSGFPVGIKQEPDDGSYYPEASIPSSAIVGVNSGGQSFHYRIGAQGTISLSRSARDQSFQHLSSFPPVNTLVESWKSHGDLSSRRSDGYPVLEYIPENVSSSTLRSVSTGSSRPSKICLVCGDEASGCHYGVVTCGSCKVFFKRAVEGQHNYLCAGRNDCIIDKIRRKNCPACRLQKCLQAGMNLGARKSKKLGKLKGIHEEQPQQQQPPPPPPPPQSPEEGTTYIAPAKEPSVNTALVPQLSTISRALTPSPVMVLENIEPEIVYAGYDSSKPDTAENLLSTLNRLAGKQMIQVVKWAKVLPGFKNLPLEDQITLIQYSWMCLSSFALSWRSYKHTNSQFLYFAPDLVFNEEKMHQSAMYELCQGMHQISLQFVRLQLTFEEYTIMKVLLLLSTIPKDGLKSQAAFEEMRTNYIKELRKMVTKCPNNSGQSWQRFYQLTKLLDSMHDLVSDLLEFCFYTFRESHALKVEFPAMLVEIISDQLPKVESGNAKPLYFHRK
Simple rule here: Mineralocorticoid receptor (MR) Competition factor less than 2 is Fulfilled, otherwise Not fulfilled.

Record excerpt, results attached:
COMPOUND: C[C@]12CC[C@H]3[C@@H](C=CC4=CC(=O)CC[C@@H]43)[C@@H]1CC[C@@]21C=CCO1 (stereo in doubt)
DISCRETE LABEL: Not fulfilled

COMPOUND: C=C[C@@H]1CC2=CC(=O)CC[C@@H]2[C@H]2CC[C@@]3(CC)[C@@H](CC[C@@]34C=CCO4)[C@@H]21
DISCRETE LABEL: Fulfilled

COMPOUND: C=C[C@@H]1CC2=CC(=O)CC[C@@H]2[C@H]2CC[C@@]3(C)[C@@H](CC[C@@]34C=CCO4)[C@@H]21
DISCRETE LABEL: Not fulfilled

Prompt: Is Mineralocorticoid receptor (MR) Competition factor strictly under 2 for the entry C[C@]12CCC(=O)C=C1[C@@H]1C[C@@H]1[C@H]1[C@@H]3[C@@H]4C[C@@H]4[C@@]4(CCC(=O)O4)[C@@]3(C)CC[C@@H]12 [A, reference compound] ?
Completion: Fulfilled

Prompt: Is Mineralocorticoid receptor (MR) Competition factor strictly under 2 for the entry C[C@]12CC[C@H]3[C@@H](CCC4=CC(=O)CC[C@@H]43)[C@@H]1CC[C@@]21C=CCO1 (stereo in doubt) ?
Completion: Not fulfilled

Prompt: Is Mineralocorticoid receptor (MR) Competition factor strictly under 2 for the entry CC[C@]12CC[C@H]3[C@@H](C=CC4=CC(=O)CC[C@@H]43)[C@@H]1CC[C@@]21C=CCO1 (stereo in doubt) ?
Completion: Fulfilled

Prompt: Is Mineralocorticoid receptor (MR) Competition factor strictly under 2 for the entry CC[C@]12CC[C@H]3[C@@H](CCC4=CC(=O)CC[C@@H]43)[C@@H]1CC[C@@]21C=CCO1 (stereo in doubt) ?
Completion: Fulfilled

Prompt: Is Mineralocorticoid receptor (MR) Competition factor strictly under 2 for the entry CC[C@]12CC[C@H]3[C@@H](C[C@@H](CO)C4=CC(=O)CC[C@@H]43)[C@@H]1CC[C@@]21C=CCO1 ?
Completion: Not fulfilled

* * *

target: androgen receptor (Homo sapiens (Human), UniProt P10275); assay: Androgen receptor binding test; details: read-out: Androgen receptor IC50; reference 3H-testosterone, Hi5 cytosol
Below, each of the compounds is paired with its reported IC50 value.

COMPOUND: C=C[C@@H]1CC2=CC(=O)CC[C@@H]2[C@H]2CC[C@@]3(CC)[C@@H](CC[C@@]34C=CCO4)[C@@H]21 [Example 11]
REPORTED: 1300 nM
--
COMPOUND: CC[C@]12CC[C@H]3[C@@H](C[C@@H](CO)C4=CC(=O)CC[C@@H]43)[C@@H]1CC[C@@]21C=CCO1 [Example 13]
REPORTED: 1000 nM
--
COMPOUND: C=C[C@@H]1CC2=CC(=O)CC[C@@H]2[C@H]2CC[C@@]3(C)[C@@H](CC[C@@]34C=CCO4)[C@@H]21 [Example 5]
REPORTED: 53 nM
--
COMPOUND: CC[C@@H]1CC2=CC(=O)CC[C@@H]2[C@H]2CC[C@@]3(C)[C@@H](CC[C@@]34C=CCO4)[C@H]12 [Example 4]
REPORTED: 64 nM
--
COMPOUND: CC[C@@H]1CC2=CC(=O)CC[C@@H]2[C@H]2CC[C@@]3(CC)[C@@H](CC[C@@]34C=CCO4)[C@H]12 [Example 10]
REPORTED: 110 nM

Next compound, please.
get_value(item= CC[C@]12CC[C@H]3[C@@H]([C@H](C)CC4=CC(=O)CC[C@@H]43)[C@@H]1CC[C@@]21C=CCO1 [Example 9] , readout=IC50) returns 81 nM
